Target: Dihydroorotate dehydrogenase (quinone), mitochondrial (Plasmodium falciparum (isolate 3D7)) (UniProt Q08210)
Sequence (Q08210 whole entry, looked up): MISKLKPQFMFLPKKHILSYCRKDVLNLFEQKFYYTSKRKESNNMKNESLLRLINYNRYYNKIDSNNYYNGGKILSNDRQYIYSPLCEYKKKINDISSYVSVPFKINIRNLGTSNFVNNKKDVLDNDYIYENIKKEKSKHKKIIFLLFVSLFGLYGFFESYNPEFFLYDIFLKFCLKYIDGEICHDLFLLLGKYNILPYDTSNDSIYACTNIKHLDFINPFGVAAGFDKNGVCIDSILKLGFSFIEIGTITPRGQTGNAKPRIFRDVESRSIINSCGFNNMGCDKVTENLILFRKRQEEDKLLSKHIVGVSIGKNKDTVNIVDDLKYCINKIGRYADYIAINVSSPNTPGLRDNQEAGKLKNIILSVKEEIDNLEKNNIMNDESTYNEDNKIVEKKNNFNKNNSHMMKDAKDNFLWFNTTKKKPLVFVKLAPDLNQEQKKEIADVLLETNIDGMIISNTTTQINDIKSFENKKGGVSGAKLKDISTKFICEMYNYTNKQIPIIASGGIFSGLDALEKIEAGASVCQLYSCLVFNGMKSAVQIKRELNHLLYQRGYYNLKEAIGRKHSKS
Assay: PfDHODH enzyme inhibitors, primary screen, biochemical, C-terminal His tag, absorbance 600 nm (AID 1175);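 also: recombinant parasite enzyme with a five histidine tag at its C terminus; test concentration not given here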
Settings: DCIP absorbance 600 nm, higher = more signal, called active from +8 up or from −8 down
Active and inactive are the calls of the source.
composite z-score by entry:
property_name: composite z-score

smi=COc1ccc(C(=O)Nc2cccc(CN3C(=O)[C@@]4(O[C@@H](CCO)[C@H]([Si](C)(C)c5ccc(OC)cc5)[C@H]4C)c4ccccc43)c2)cc1 property_name="composite z-score" value_reported="-0.873 (inactive)"
smi=CC(C)(C)OC(=O)CC[C@@]12N=C(c3ccc(OCCCO)cc3)O[C@@H]1c1ccccc1N(Cc1ccccc1)C2=O property_name="composite z-score" value_reported="0.463 (inactive)"
smi=COc1ccc([Si](C)(C)[C@H]2[C@H](CCO)O[C@@]3(C(=O)N(Cc4ccc(N5C(=O)c6cccc7cccc5c67)cc4)c4ccccc43)[C@@H]2C)cc1 property_name="composite z-score" value_reported="-0.344 (inactive)"
smi=COCCCNC(=O)[C@@]1(CCS(=O)(=O)c2ccccc2)N=C(c2ccc(OCCCO)cc2)O[C@H]1c1ccccc1CN=[N+]=[N-] property_name="composite z-score" value_reported="-1.02 (inactive)"
smi=C=C(/C(=C/C[C@H](OC(=O)c1ccncc1)c1cccc(OCCO)c1)c1cc(C(=O)OC)ccc1OC)C(C)C property_name="composite z-score" value_reported="-0.494 (inactive)"

Data origin: PubChem BioAssay
